Taken from patent US8486958B2.

- TEST_TARGET: UniProt P35372
- Sequence (P35372 whole entry): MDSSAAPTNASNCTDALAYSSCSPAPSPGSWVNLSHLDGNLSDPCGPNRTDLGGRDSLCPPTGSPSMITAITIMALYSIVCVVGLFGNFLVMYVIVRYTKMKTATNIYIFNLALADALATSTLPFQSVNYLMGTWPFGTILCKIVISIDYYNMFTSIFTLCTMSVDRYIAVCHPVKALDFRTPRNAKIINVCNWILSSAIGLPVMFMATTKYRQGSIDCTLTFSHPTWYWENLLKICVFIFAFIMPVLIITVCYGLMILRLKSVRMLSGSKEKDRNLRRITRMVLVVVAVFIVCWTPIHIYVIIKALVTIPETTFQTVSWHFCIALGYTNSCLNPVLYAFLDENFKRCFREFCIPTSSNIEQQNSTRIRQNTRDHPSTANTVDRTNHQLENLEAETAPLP
VALUE_TYPE: pKi
Please report pKi as the negative decimal logarithm of the molar concentration, giving only the number.

Sample CCC1(CC)c2cc(C(N)=O)ccc2C[C@H](OC)[C@H]1NCC[C@H](CC1CCCCC1)C(=O)O — what was its pKi? 9.40
